# System: E. coli ATCC28922
# protocol_notes: MIC determination by microplate dilution, E. coli human strain
# Assay type: cell-based, Escherichia coli
# condition_label: Escherichia coli, ATCC28922, Gram-negative, Mueller-Hinton medium, 24 h, 37° C.
The entries below come with measured MIC values attached.
Respond with the figure and its unit, in that order.

compound	measurement_target	MIC
CC(C)OC(=O)CC[C@@H](C)[C@H]1CCC2C3CCC4C[C@@H](NCCN(CCN)CCN)CC[C@]4(C)C3C[C@H](O)[C@@]21C (stereo partly drawn) [(29)]	E. coli ATCC28922	14 µg/mL
COC(=O)CC[C@@H](C)[C@H]1CCC2C3CCC4C[C@@H](NCCNCCNCCNCCNCCN)CC[C@]4(C)C3C[C@H](O)[C@@]21C (stereo partly drawn) [(20)]	E. coli ATCC28922	8 µg/mL

// output MIC; input CC(C)OC(=O)CC[C@@H](C)[C@H]1CCC2C3C(CC[C@@]21C)[C@@]1(C)CC[C@H](NCCCNCCCNCCCN)CC1C[C@@H]3O (stereo partly drawn) [(51), isopropyl 3β-norsperminoursodeoxycholate] ; system E. coli ATCC28922 30 µg/mL

Report measured MIC on E. coli ATCC28922; entry: CC(C)OC(=O)CC[C@@H](C)[C@H]1CCC2C3C(CC[C@@]21C)[C@@]1(C)CC[C@H](NCCN(CCN)CCN)CC1C[C@H]3O (stereo partly drawn) [(40)] 14 µg/mL

Write down measured MIC (E. coli ATCC28922) for this compound. COC(=O)CC[C@@H](C)[C@H]1CCC2C3CCC4C[C@@H](NCCCN(C)CCCN)CC[C@]4(C)C3C[C@H](O)[C@@]21C (stereo partly drawn) [(31)] 26 µg/mL

Look up E. coli ATCC28922 data: MIC of CC(C)OC(=O)CC[C@@H](C)[C@H]1CCC2C3CCC4C[C@@H](NCCCNCCCNCCCN)CC[C@]4(C)C3C[C@H](O)[C@@]21C (stereo partly drawn) [Compound (1), isopropyl 3β-norsperminodeoxycholate] , then report it. 8 µg/mL

* * *

Entries and their MIC values follow.
# Tested on: E. coli (1956)
# protocol_notes: MIC determination by microplate dilution, E. coli animal strain
# Type: cell-based, Escherichia coli
# condition_label: Escherichia coli, Gram-negative, Mueller-Hinton medium, 24 h, 37° C.

Field: example entries. Status: answers known.
compound	MIC
CC(C)OC(=O)CC[C@@H](C)[C@H]1CCC2C3C(CC[C@@]21C)[C@@]1(C)CC[C@H](NCCNCCNCCNCCNCCN)CC1C[C@@H]3O (stereo partly drawn)	65 µg/mL
COC(=O)CC[C@@H](C)[C@H]1CCC2C3CCC4C[C@@H](NCCCNCCCN)CC[C@]4(C)C3CC[C@@]21C (stereo partly drawn) [(18), methyl 3β-norspermidinolithocholate]	3 µg/mL

Okay, next one:
Hello, please tell me recorded MIC for this one: COC(=O)CC[C@@H](C)[C@H]1CCC2C3C(CC[C@@]21C)[C@@]1(C)CC[C@H](NCCNCCNCCNCCNCCN)CC1C[C@@H]3O (stereo partly drawn) 60 µg/mL

* * *

Here the recorded MIC is given for each entry.
# Test system: P. aeruginosa ATCC27853
# protocol_notes: MIC determination by microplate dilution, P. aeruginosa human strain
# Assay type: cell-based, Pseudomonas aeruginosa
# condition_label: Pseudomonas aeruginosa, ATCC27853, Gram-negative, Mueller-Hinton medium, 24 h, 37° C.
Give just the number in µg/mL; leave the unit off.

Illustrative cases are given below, each with its answer.
molecule	MIC, µg/mL
CC(C)OC(=O)CC[C@@H](C)[C@H]1CCC2C3C(CC[C@@]21C)[C@@]1(C)CC[C@H](NCCNCCNCCNCCNCCN)CC1C[C@H]3O (some centres unmarked) [(23)]	64
COC(=O)CC[C@@H](C)[C@H]1CCC2C3C(CC[C@@]21C)[C@@]1(C)CC[C@H](NCCCN(CCCN)CCCN)CC1C[C@H]3O (some centres unmarked) [(38)]	28

Now for the molecule whose MIC we want.
Using the record for CC(C)OC(=O)CC[C@@H](C)[C@H]1CCC2C3C(C[C@H](O)[C@@]21C)[C@@]1(C)CC[C@H](NCCCNCCCN)CC1C[C@H]3O (stereo partly drawn) [(7), isopropyl 3β-norspermidinocholate] , state its measured MIC. 30
